- System: chickweed
- assay notes: Test C postemergence test
- Type: in vivo, Stellaria media
- condition context: 250 g ai/ha, scale 0 to 100, 0 no effect, 100 complete control
value kind: Plant response rating, Chickweed
Please give only the number in your answer, with no unit.

In [3]: df
Out[3]:
                                   compound  value
0  Cn1nc(C(F)(F)F)c(C[S+]([O-])c2ccc(Cl)c[n+]2[O-])c1OC(F)F (stereo not drawn) [Compound 6]     95

Prompt line: Give recorded Plant response rating, Chickweed. Cc1cc[n+]([O-])c(S(=O)(=O)Cc2c(C(F)(F)F)nn(C)c2OC(F)F)c1 [Compound 2]
Response line: 80

Prompt line: Give recorded Plant response rating, Chickweed. [O-][n+]1cc(Cl)ccc1[S+]([O-])Cc1c(C(F)(F)F)nn(CC(F)(F)F)c1Cl (stereo not drawn) [Compound 47]
Response line: 0

Prompt line: Give recorded Plant response rating, Chickweed. CC(c1c(C(F)(F)F)nn(C)c1Cl)S(=O)(=O)c1ccc(Cl)c[n+]1[O-] (racemic) [Compound 40]
Response line: 0

Prompt line: Give recorded Plant response rating, Chickweed. CCn1nc(C(F)(F)F)c(C(C)S(=O)(=O)c2cccc[n+]2[O-])c1OCC(F)(F)F (stereo not drawn) [Compound 69]
Response line: 40

Prompt line: Give recorded Plant response rating, Chickweed. Cc1cc[n+]([O-])c([S+]([O-])Cc2c(C(F)(F)F)nn(C)c2OC(F)F)c1 (stereo not drawn) [Compound 1]
Response line: 90
